- TARGET OR SYSTEM: human MC3R (human, UniProt P41968 1-323)
- Sequence (P41968 whole entry): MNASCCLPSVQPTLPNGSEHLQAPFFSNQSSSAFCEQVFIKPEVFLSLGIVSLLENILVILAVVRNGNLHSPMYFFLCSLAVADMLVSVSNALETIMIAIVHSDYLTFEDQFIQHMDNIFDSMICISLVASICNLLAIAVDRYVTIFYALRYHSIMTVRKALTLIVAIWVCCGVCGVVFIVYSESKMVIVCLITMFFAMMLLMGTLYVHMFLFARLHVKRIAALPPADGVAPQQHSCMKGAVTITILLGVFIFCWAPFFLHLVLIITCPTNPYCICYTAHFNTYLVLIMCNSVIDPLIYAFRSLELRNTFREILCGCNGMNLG
- ASSAY: cell-based or functional assay
Positions of bridges follow the written chain, without caps; N, C: chain ends. Non-standard residues stand in square brackets, D forms with d. hCit = NC(=O)NCCCC[C@H](N)C(=O)O; 2Pal = N[C@@H](Cc1ccccn1)C(=O)O; Cit = NC(=O)NCCC[C@H](N)C(=O)O; Nle = CCCC[C@H](N)C(=O)O; Aib = CC(C)(N)C(=O)O
MEASUREMENT NAME: cAMP EC50
Hey, just the number and the unit after it is fine.

- Ac-R[Nle]C[Cit][dF]R[dW]C-NH2 (disulfide 3-8; SMILES CCCC[C@H](NC(=O)[C@H](CCCNC(=N)N)NC(C)=O)C(=O)N[C@H]1CSSC[C@@H](C(N)=O)NC(=O)[C@@H](Cc2c[nH]c3ccccc23)NC(=O)[C@H](CCCNC(=N)N)NC(=O)[C@@H](Cc2ccccc2)NC(=O)[C@H](CCCNC(N)=O)NC1=O) [CTX-1608]: 274 nM

Give recorded cAMP EC50. Ac-RC[Aib][2Pal][dF]RFC-NH2 (disulfide 2-8; SMILES CC(=O)N[C@@H](CCCNC(=N)N)C(=O)N[C@H]1CSSC[C@@H](C(N)=O)NC(=O)[C@H](Cc2ccccc2)NC(=O)[C@H](CCCNC(=N)N)NC(=O)[C@@H](Cc2ccccc2)NC(=O)[C@H](Cc2ccccn2)NC(=O)C(C)(C)NC1=O) [CTX-1604] 167 nM

Tell us which cAMP EC50 value is on record for Ac-R[Nle]C[hCit][dF]RWC-NH2 (disulfide 3-8; SMILES CCCC[C@H](NC(=O)[C@H](CCCNC(=N)N)NC(C)=O)C(=O)N[C@H]1CSSC[C@@H](C(N)=O)NC(=O)[C@H](Cc2c[nH]c3ccccc23)NC(=O)[C@H](CCCNC(=N)N)NC(=O)[C@@H](Cc2ccccc2)NC(=O)[C@H](CCCCNC(N)=O)NC1=O) [CTX-1618] 29 nM
